Substrate: CC(C)=CCC/C(C)=C/CC/C(C)=C/CO[P@@](=O)(O)OP(=O)(O)O
experiment-description: purified protein
Format: biochemical, Coniophora puteana
measurement-context: 25 °C, FPP 0-70 µM in methanol, 0.8–1.2 µM enzyme
observable: Km (µM)
Answer format: numeric, µM implied, no suffix.

As a guide, the following entries are already answered.
q: Item under review: Copu9 (Coniophora puteana RWD-64-598 SS2; T73C) (protein, full-length, codon-optimized, N-terminal hexa-His tag (pET-M11), expressed in E. coli BL21 RIL DE3; homodimer; 13 N-terminal residues not visible in crystal) MSPTATFTTTSSEENAPTKFILPDLVSDCTYPLLLNDNCEPVARASEQWLIAGARLQEPRRTKFMGLLAGELCAACYPHADASHLRVCVDFMNWLFNMDDWLDDFDVDDTWGMRHCCLGAFRDPVGFETDKLGGLMSKSFFSRFRQDGGPGCTERFIHTMDLFFIAVAQQAGDRANGITPDLESYITVRRDTSGCKPCFALIEYAAGIDLPDHVIYHPTLAAMEEATNDLVTWSNDIFSYNKEQVTDDTHNMIPVLMRERGLDLQGAVDFVGRLCKGTIERFETERARLPSWGPELDAQVQTYIEGLQNWIVGSLHWSFDSHRYFGKDGHAVKKHRIVKLLPKRVPQQA . Reported Km?
a: 6.28

q: Also, Copu9 (Coniophora puteana RWD-64-598 SS2; C195V) (protein, full-length, codon-optimized, N-terminal hexa-His tag (pET-M11), expressed in E. coli BL21 RIL DE3; homodimer; 13 N-terminal residues not visible in crystal) MSPTATFTTTSSEENAPTKFILPDLVSDCTYPLLLNDNCEPVARASEQWLIAGARLQEPRRTKFMGLLAGELTAACYPHADASHLRVCVDFMNWLFNMDDWLDDFDVDDTWGMRHCCLGAFRDPVGFETDKLGGLMSKSFFSRFRQDGGPGCTERFIHTMDLFFIAVAQQAGDRANGITPDLESYITVRRDTSGVKPCFALIEYAAGIDLPDHVIYHPTLAAMEEATNDLVTWSNDIFSYNKEQVTDDTHNMIPVLMRERGLDLQGAVDFVGRLCKGTIERFETERARLPSWGPELDAQVQTYIEGLQNWIVGSLHWSFDSHRYFGKDGHAVKKHRIVKLLPKRVPQQA please.
a: 8.48

q: Also, Copu9 (Coniophora puteana RWD-64-598 SS2; N228A) (protein, full-length, codon-optimized, N-terminal hexa-His tag (pET-M11), expressed in E. coli BL21 RIL DE3; homodimer; 13 N-terminal residues not visible in crystal) MSPTATFTTTSSEENAPTKFILPDLVSDCTYPLLLNDNCEPVARASEQWLIAGARLQEPRRTKFMGLLAGELTAACYPHADASHLRVCVDFMNWLFNMDDWLDDFDVDDTWGMRHCCLGAFRDPVGFETDKLGGLMSKSFFSRFRQDGGPGCTERFIHTMDLFFIAVAQQAGDRANGITPDLESYITVRRDTSGCKPCFALIEYAAGIDLPDHVIYHPTLAAMEEATADLVTWSNDIFSYNKEQVTDDTHNMIPVLMRERGLDLQGAVDFVGRLCKGTIERFETERARLPSWGPELDAQVQTYIEGLQNWIVGSLHWSFDSHRYFGKDGHAVKKHRIVKLLPKRVPQQA please.
a: 4.42

As a next step, examine the protein that follows.
q: Item under review: Copu9 (Coniophora puteana RWD-64-598 SS2; G194A) (protein, full-length, codon-optimized, N-terminal hexa-His tag (pET-M11), expressed in E. coli BL21 RIL DE3; homodimer; 13 N-terminal residues not visible in crystal) MSPTATFTTTSSEENAPTKFILPDLVSDCTYPLLLNDNCEPVARASEQWLIAGARLQEPRRTKFMGLLAGELTAACYPHADASHLRVCVDFMNWLFNMDDWLDDFDVDDTWGMRHCCLGAFRDPVGFETDKLGGLMSKSFFSRFRQDGGPGCTERFIHTMDLFFIAVAQQAGDRANGITPDLESYITVRRDTSACKPCFALIEYAAGIDLPDHVIYHPTLAAMEEATNDLVTWSNDIFSYNKEQVTDDTHNMIPVLMRERGLDLQGAVDFVGRLCKGTIERFETERARLPSWGPELDAQVQTYIEGLQNWIVGSLHWSFDSHRYFGKDGHAVKKHRIVKLLPKRVPQQA . Reported Km?
a: 7.00
